All figures here come from patent US11731943B2.

# TARGET SYSTEM: isolated recombinant JAK1 kinase domain (Homo sapiens (Human), UniProt P23458)
# Sequence (P23458 875-1153): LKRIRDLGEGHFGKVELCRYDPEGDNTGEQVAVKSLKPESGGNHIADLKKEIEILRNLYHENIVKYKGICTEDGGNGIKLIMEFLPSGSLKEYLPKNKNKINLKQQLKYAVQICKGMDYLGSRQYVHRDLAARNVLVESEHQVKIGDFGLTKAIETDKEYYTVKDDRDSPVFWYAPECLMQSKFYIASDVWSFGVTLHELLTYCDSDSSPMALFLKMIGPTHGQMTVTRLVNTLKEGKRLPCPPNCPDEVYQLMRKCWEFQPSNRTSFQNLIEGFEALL
# ASSAY DETAILS: JAK1 enzyme assay (Caliper LabChip, Ki)
# Format: biochemical
# REPORTED CONDITIONS: read-out: JAK1 Ki
Examples of molecules with documented pKi follow.
As a rule, pKi stands for the negative log10 of the concentration, concentration in M.

INSERT INTO measurements (molecule, target_system, meas_value) VALUES
  ('N#CC[C@]1(n2cc(C(N)=O)c(NC(=O)C3CC3)n2)CC[C@@H](N2CC(O)(C(F)(F)F)C2)CC1', 'isolated recombinant JAK1 kinase domain (Homo sapiens (Human), UniProt P23458)', 8.57),
  ('N#CCC1(n2cc(C(N)=O)c(NC(=O)C3CC3)n2)CCC(Oc2ccc(-c3ccccc3)cc2)CC1 (single isomer, unassigned) [Example 211]', 'isolated recombinant JAK1 kinase domain (Homo sapiens (Human), UniProt P23458)', 9.13),
  ('N#CCC1(n2cc(C(N)=O)c(NC(=O)OC3CC3)n2)CCN(Cc2ccc(-c3ccccc3)c(O)c2)CC1', 'isolated recombinant JAK1 kinase domain (Homo sapiens (Human), UniProt P23458)', 9.31);

# evaluate next
Prompt: So what does the record say about pKi for "N#CCC1(n2cc(C(N)=O)c(NC(=O)C3CC3)n2)CCN(Cc2ccc(-c3cccc(C(F)(F)F)c3)cc2)CC1" ?
Completion: 7.80
